- procedureDetails: Metabolic stability in human liver microsomes
- Assay type: ADME, Microsome
measurementKind: microsomal CLint (µL/min/mg)

molecule: CN1CC(=O)N/C1=N\C(=O)Nc1ccccn1
measurementKind: microsomal CLint
val: 47
--
molecule: CN1CC(=O)N/C1=N\C(=O)Nc1cccnc1
measurementKind: microsomal CLint
val: 20
--
molecule: CN1CC(=O)N/C1=N\C(=O)Nc1csc(Cl)c1
measurementKind: microsomal CLint
val: 55
--
molecule: CN1CC(=O)N/C1=N\C(=O)Nc1ccncc1
measurementKind: microsomal CLint
val: 11
--
molecule: CN1CC(=O)N=C1NC(=O)Nc1cccc(Cl)c1 [FENOBAM ANHYDROUS]
measurementKind: microsomal CLint
val: 100

* * *

- procedureDetails: Metabolic stability in rat liver microsomes
- Assay type: ADME, Microsome
measurementKind: microsomal CLint (µL/min/mg)

compound: CN1CC(=O)N/C1=N\C(=O)Nc1ccncc1
val: 9
--
compound: CN1CC(=O)N/C1=N\C(=O)Nc1ccccn1
val: 22
--
compound: CN1CC(=O)N/C1=N\C(=O)Nc1cccnc1
val: 5
--
compound: CN1CC(=O)N=C1NC(=O)Nc1cccc(Cl)c1 [FENOBAM ANHYDROUS]
val: 44
--
compound: CN1CC(=O)N/C1=N\C(=O)Nc1csc(Cl)c1
val: 27

* * *

Reported values of pIC50 for individual entries
- targetEntity: Metabotropic glutamate receptor 5 (Homo sapiens)
- Sequence (P41594 whole entry): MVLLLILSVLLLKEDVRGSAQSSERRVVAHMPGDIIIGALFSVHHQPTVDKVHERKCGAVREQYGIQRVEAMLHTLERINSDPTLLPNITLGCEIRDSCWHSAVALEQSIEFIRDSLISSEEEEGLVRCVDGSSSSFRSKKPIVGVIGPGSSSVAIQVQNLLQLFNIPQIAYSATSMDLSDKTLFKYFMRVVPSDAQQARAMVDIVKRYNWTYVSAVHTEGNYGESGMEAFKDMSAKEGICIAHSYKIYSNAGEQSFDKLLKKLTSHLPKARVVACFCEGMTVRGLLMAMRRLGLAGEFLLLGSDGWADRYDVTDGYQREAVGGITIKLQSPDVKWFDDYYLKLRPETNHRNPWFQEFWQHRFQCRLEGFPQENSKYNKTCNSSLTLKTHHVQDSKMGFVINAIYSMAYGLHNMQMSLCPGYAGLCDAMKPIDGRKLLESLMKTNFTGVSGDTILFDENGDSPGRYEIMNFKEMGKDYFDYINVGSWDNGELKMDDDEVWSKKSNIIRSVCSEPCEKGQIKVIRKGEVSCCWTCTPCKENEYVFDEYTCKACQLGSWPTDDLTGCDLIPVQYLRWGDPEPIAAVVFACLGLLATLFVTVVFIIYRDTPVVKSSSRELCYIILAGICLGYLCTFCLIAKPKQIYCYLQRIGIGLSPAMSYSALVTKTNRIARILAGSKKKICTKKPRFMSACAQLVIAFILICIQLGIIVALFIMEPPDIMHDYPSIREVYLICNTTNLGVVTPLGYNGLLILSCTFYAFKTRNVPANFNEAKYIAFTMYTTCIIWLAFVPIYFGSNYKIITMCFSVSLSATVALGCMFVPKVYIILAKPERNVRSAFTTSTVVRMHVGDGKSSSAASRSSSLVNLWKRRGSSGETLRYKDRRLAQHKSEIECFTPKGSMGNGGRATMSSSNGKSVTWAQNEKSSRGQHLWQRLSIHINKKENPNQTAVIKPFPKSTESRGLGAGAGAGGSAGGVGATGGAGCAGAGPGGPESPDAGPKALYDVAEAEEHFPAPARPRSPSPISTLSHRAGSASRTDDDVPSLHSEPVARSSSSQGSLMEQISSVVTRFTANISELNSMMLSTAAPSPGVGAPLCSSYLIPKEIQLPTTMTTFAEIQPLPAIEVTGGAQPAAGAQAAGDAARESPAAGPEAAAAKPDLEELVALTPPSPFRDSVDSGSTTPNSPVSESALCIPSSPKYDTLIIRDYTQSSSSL
- procedureDetails: Displacement of [3H]MPEP from mGlu5 receptor
pIC50: −log10 of the molar value.

compound: CN1CC(=O)N=C1NC(=O)Nc1cccc(Cl)c1 [FENOBAM ANHYDROUS]
targetEntity: Metabotropic glutamate receptor 5 (Homo sapiens)
reportedRelation: =
pIC50: 7.21
//
compound: CN1CC(=O)N/C1=N\C(=O)Nc1csc(Cl)c1
targetEntity: Metabotropic glutamate receptor 5 (Homo sapiens)
reportedRelation: =
pIC50: 7.11
//
compound: CN1CC(=O)N/C1=N\C(=O)Nc1ccncc1
targetEntity: Metabotropic glutamate receptor 5 (Homo sapiens)
reportedRelation: =
pIC50: 5.95
//
compound: Cc1cccc(C#Cc2cccnc2)n1
targetEntity: Metabotropic glutamate receptor 5 (Homo sapiens)
reportedRelation: =
pIC50: 8.00
//
compound: Cc1cccc(C#Cc2ccncc2)n1
targetEntity: Metabotropic glutamate receptor 5 (Homo sapiens)
reportedRelation: =
pIC50: 7.59
//
compound: CN1CC(=O)N/C1=N\C(=O)Nc1ccccn1
targetEntity: Metabotropic glutamate receptor 5 (Homo sapiens)
reportedRelation: =
pIC50: 6.23
//
compound: CN1CC(=O)N/C1=N\C(=O)Nc1ccccc1Cl
targetEntity: Metabotropic glutamate receptor 5 (Homo sapiens)
reportedRelation: =
pIC50: 5.60
//
compound: CN1CC(=O)N/C1=N\C(=O)Nc1ccccc1
targetEntity: Metabotropic glutamate receptor 5 (Homo sapiens)
reportedRelation: =
pIC50: 5.87
//
compound: Cc1cccc(C#Cc2cccc(Cl)c2)n1
targetEntity: Metabotropic glutamate receptor 5 (Homo sapiens)
reportedRelation: =
pIC50: 8.52
//
compound: Cc1cccc(C#Cc2ccccn2)n1
targetEntity: Metabotropic glutamate receptor 5 (Homo sapiens)
reportedRelation: =
pIC50: 7.41
//
compound: CN1CC(=O)N/C1=N\C(=O)Nc1ccsc1
targetEntity: Metabotropic glutamate receptor 5 (Homo sapiens)
reportedRelation: =
pIC50: 6.15
//
compound: CN1CC(=O)N/C1=N\C(=O)Nc1cccnc1
targetEntity: Metabotropic glutamate receptor 5 (Homo sapiens)
reportedRelation: <
pIC50: 5.30
//
compound: Cc1cccc(C#Cc2ccccc2Cl)n1
targetEntity: Metabotropic glutamate receptor 5 (Homo sapiens)
reportedRelation: =
pIC50: 8.30
//
compound: Cc1cccc(C#Cc2ccc(Cl)cc2)n1
targetEntity: Metabotropic glutamate receptor 5 (Homo sapiens)
reportedRelation: =
pIC50: 6.54
//
compound: CN1CC(=O)N/C1=N\C(=O)Nc1ccc(Cl)cc1
targetEntity: Metabotropic glutamate receptor 5 (Homo sapiens)
reportedRelation: <
pIC50: 5.30
